Quick reference for Cells in G1 phase among some compounds
- Tested on: GammaA3
- PROTOCOL: Cell cycle analysis by flow cytometry
- Format: cell-based, mouse
- ASSAY SETUP: IC50 concentration, 96 h
- Method: CycleTEST™ PLUS DNA Reagent Kit (Becton Dickinson GmbH, Heidelberg, Germany) for cell cycle analysis was used, according to the instructions of the manufacturer. Briefly, the cells were harvested with trypsin, washed with PBS, and resuspended in CycleTEST Buffer. The cells were centrifuged and resuspended in solution A. After incubation for 10 min at room temperature, solution B was added and incubated. After adding solution C, the samples were incubated at 4°C protected from light. […]

COMPOUND	ASSAY READOUT	REPORTED RESULT
CSc1nc(NCc2ccccc2)c2cnn(CC(Cl)c3ccccc3)c2n1 (centres unmarked)	Cells in G1 phase	68.6%
CC(C)Sc1nc(NCCc2ccccc2)c2cnn(CC(Cl)c3ccccc3)c2n1 (centres unmarked)	Cells in G1 phase	67%
CSc1nc(NCCc2ccccc2)c2cnn(CC(Cl)c3ccc(F)cc3)c2n1 (centres unmarked)	Cells in G1 phase	58.4%

[ask] Request the reported Cells in G1 phase associated with Fc1ccccc1CNc1ncnc2c1cnn2CC(Cl)c1ccc(Br)cc1 (centres unmarked)
[reply] 40.3%

[ask] Same again, this time with Fc1ccc(C(Cl)Cn2ncc3c(Nc4cccc(Cl)c4)ncnc32)cc1 (centres unmarked)
[reply] 61.9%

[ask] Same again, this time with CCCCNc1nc(SCC)nc2c1cnn2CC(Cl)c1ccccc1 (centres unmarked)
[reply] 51.9%

[ask] Same again, this time with Cc1nc(Nc2cccc(F)c2)c2cnn(CC(Cl)c3ccccc3)c2n1 (centres unmarked)
[reply] 74.4%

[ask] Same again, this time with Cc1nc(Nc2cccc(Cl)c2)c2cnn(CC(Cl)c3ccccc3)c2n1 (centres unmarked)
[reply] 73.2%

[ask] Same again, this time with CSc1nc(NCCc2ccccc2)c2cnn(C=Cc3ccccc3)c2n1
[reply] 53.4%

[ask] Same again, this time with CSc1nc(NCc2ccccc2)c2cnn(CC(Cl)c3ccc(F)cc3)c2n1 (centres unmarked)
[reply] 68%

----------
- System: GammaD12
- PROTOCOL: MTS cell viability assay
- Format: cell-based, mouse
- ASSAY SETUP: MTS, 24 h, read-out: Calculated IC50 after single treatment for 24 h
- Description: Three human and eleven murine cancer cell lines were used. […] Cell culture viability was monitored by CellTiter96® AQueous One Solution Cell Proliferation Assay (Promega GmbH, Mannheim, Germany). […] Absorbance at 490 nm was assayed with a Victor3 Wallac 1420 Multilabel counter (PerkinElmer, Waltham, MA, USA).
ASSAY READOUT: pIC50
Scale: pIC50 equals -log10([C]), with [C] in mol/L.

Examples from the recorded data:
COMPOUND	pIC50
CSc1nc(NCc2ccccc2)c2cnn(CC(Cl)c3ccccc3)c2n1 (stereo not shown) [Si34]	4.63
CSc1nc(NCCc2ccc(Cl)cc2)c2cnn(CC(Cl)c3ccccc3)c2n1 (stereo not shown) [Si57]	4.84
CSc1nc(NCc2ccccc2)c2cnn(CC(Cl)c3ccc(F)cc3)c2n1 (stereo not shown) [Si65]	4.68
CSc1nc(NCCc2ccccc2)c2cnn(C=Cc3ccccc3)c2n1 [Si40]	4.59
Fc1ccccc1CNc1ncnc2c1cnn2CC(Cl)c1ccc(Br)cc1 (stereo not shown) [Si162]	4.94

[ask] Please provide the recorded pIC50 for CSc1nc(NCc2ccccc2)c2cnn(CC(Cl)c3ccc(Cl)cc3)c2n1 (stereo not shown) [Si70] , tested on GammaD12.
[reply] 4.67

[ask] Same again, this time with Fc1ccc(C(Cl)Cn2ncc3c(Nc4cccc(Cl)c4)ncnc32)cc1 (stereo not shown) [Si104]
[reply] 4.88

[ask] Same again, this time with CSc1nc(NCc2ccccc2)c2cnn(CC(Br)c3ccccc3)c2n1 (stereo not shown) [Si81]
[reply] 4.76

[ask] Same again, this time with CSc1nc(NCCc2ccccc2)c2cnn(CC(Cl)c3ccc(F)cc3)c2n1 (stereo not shown) [Si66]
[reply] 4.85

[ask] Same again, this time with CCCCNc1nc(SCC)nc2c1cnn2CC(Cl)c1ccccc1 (stereo not shown) [Si20]
[reply] 4.77

[ask] Same again, this time with CSc1nc(Nc2cccc(F)c2)c2cnn(CC(Cl)c3ccc(F)cc3)c2n1 (stereo not shown) [Si93]
[reply] 4.93

----------
Quick reference for IC50 among some compounds
- Tested on: GammaD12
- PROTOCOL: MTS cell viability assay
- Type: cell-based, mouse
- ASSAY SETUP: MTS, 96 h, read-out: Calculated IC50 after daily treatment for 96 h
Write it as a number; the unit µM goes unstated.

COMPOUND	IC50, µM
CSc1nc(NCc2ccccc2)c2cnn(CC(Br)c3ccccc3)c2n1 (stereo not drawn) [Si81]	14.1
CSc1nc(NCCc2ccc(Cl)cc2)c2cnn(CC(Cl)c3ccccc3)c2n1 (stereo not drawn) [Si57]	4.8
CSc1nc(NCCc2ccccc2)c2cnn(CC(Cl)c3ccc(F)cc3)c2n1 (stereo not drawn) [Si66]	4.8
CSc1nc(NCc2ccccc2)c2cnn(CC(Cl)c3ccc(F)cc3)c2n1 (stereo not drawn) [Si65]	7.1
CSc1nc(NCCc2ccccc2)c2cnn(C=Cc3ccccc3)c2n1 [Si40]	12.7

[ask] Request the reported IC50 associated with Fc1ccc(C(Cl)Cn2ncc3c(Nc4cccc(Cl)c4)ncnc32)cc1 (stereo not drawn) [Si104]
[reply] 9.2

[ask] Same again, this time with CSc1nc(Nc2cccc(F)c2)c2cnn(CC(Cl)c3ccc(F)cc3)c2n1 (stereo not drawn) [Si93]
[reply] 8.8

[ask] Same again, this time with CSc1nc(NCc2ccccc2)c2cnn(CC(Cl)c3ccccc3)c2n1 (stereo not drawn) [Si34]
[reply] 8.8

[ask] Same again, this time with CCCCNc1nc(SCC)nc2c1cnn2CC(Cl)c1ccccc1 (stereo not drawn) [Si20]
[reply] 11.3

[ask] Same again, this time with CSc1nc(NCc2ccccc2)c2cnn(CC(Cl)c3ccc(Cl)cc3)c2n1 (stereo not drawn) [Si70]
[reply] 7.9

----------
- STUDY SYSTEM: c-Src (Homo sapiens, UniProt P12931)
- Construct: His tag; purchased Upstate (Lake Placid, NY, USA)
- Sequence (P12931 whole entry): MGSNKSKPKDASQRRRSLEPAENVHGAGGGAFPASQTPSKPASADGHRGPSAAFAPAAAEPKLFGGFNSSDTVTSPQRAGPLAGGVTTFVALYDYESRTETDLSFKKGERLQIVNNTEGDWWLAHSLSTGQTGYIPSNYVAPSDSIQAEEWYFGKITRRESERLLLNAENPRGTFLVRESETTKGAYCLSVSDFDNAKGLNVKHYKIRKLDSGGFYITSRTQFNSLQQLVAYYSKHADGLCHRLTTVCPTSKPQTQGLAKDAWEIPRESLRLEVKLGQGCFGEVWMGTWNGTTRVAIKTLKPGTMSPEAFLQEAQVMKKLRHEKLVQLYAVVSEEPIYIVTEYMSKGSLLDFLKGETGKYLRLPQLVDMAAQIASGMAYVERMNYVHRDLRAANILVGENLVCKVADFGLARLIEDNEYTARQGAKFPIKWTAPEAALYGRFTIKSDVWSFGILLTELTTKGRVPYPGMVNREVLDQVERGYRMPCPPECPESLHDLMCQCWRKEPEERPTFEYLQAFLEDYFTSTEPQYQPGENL
- PROTOCOL: Src filter-binding kinase assay (Src Assay Kit)
- Format: biochemical
- ASSAY SETUP: isolated Src; calculated from ID50, ATP-competitive; E0 0.005, S0 0.012 µM
ASSAY READOUT: pKi
Scale: pKi equals -log10([C]), with [C] in mol/L.

Examples from the recorded data:
COMPOUND	pKi
Cc1nc(Nc2cccc(Cl)c2)c2cnn(CC(Cl)c3ccccc3)c2n1 (stereo not shown)	6.44
Cc1nc(Nc2cccc(F)c2)c2cnn(CC(Cl)c3ccccc3)c2n1 (stereo not shown)	6.47
CC(C)Sc1nc(NCCc2ccccc2)c2cnn(CC(Cl)c3ccccc3)c2n1 (stereo not shown)	5.70

[ask] Request the reported pKi associated with Fc1ccccc1CNc1ncnc2c1cnn2CC(Cl)c1ccc(Br)cc1 (stereo not shown)
[reply] 7.38

----------
- System: GammaD12
- PROTOCOL: MTS cell viability assay
- Assay type: cell-based, mouse
- ASSAY SETUP: Mus musculus, MTS, 96 h, read-out: Calculated IC50 after daily treatment for 96 h
- Method: Three human and eleven murine cancer cell lines were used. […] Cell culture viability was monitored by CellTiter96® AQueous One Solution Cell Proliferation Assay (Promega GmbH, Mannheim, Germany). […] Absorbance at 490 nm was assayed with a Victor3 Wallac 1420 Multilabel counter (PerkinElmer, Waltham, MA, USA).
ASSAY READOUT: IC50
Don't forget the unit after the value.

MOLECULE	STUDY SYSTEM	ASSAY READOUT	REPORTED RESULT
Clc1cccc(Nc2nc(SC3CCCC3)nc3c2cnn3CC(Cl)c2ccccc2)c1 (stereo not shown)	GammaD12	IC50	3.5 µM

[ask] Request the reported IC50 associated with Cc1nc(Nc2cccc(Cl)c2)c2cnn(CC(Cl)c3ccccc3)c2n1 (stereo not shown)
[reply] 9 µM

[ask] Same again, this time with Cc1nc(Nc2cccc(F)c2)c2cnn(CC(Cl)c3ccccc3)c2n1 (stereo not shown)
[reply] 15.9 µM

[ask] Same again, this time with CC(C)Sc1nc(NCCc2ccccc2)c2cnn(CC(Cl)c3ccccc3)c2n1 (stereo not shown)
[reply] 7.7 µM

----------
- Test system: CaCo2
- PROTOCOL: Cell cycle analysis by flow cytometry
- Format: cell-based, human
- ASSAY SETUP: IC50 concentration, 96 h
ASSAY READOUT: Cells in G1 phase (%)
Write it as a number; the unit % goes unstated.

Examples from the recorded data:
COMPOUND	UNIT ANNOTATION	Cells in G1 phase
Cc1nc(Nc2cccc(Cl)c2)c2cnn(CC(Cl)c3ccccc3)c2n1 (stereo not shown)	%	52.7
CSc1nc(NCc2ccccc2)c2cnn(CC(Cl)c3ccccc3)c2n1 (stereo not shown)	%	52.9
Clc1cccc(Nc2nc(SC3CCCC3)nc3c2cnn3CC(Cl)c2ccccc2)c1 (stereo not shown)	%	42.1
CSc1nc(NCc2ccccc2)c2cnn(CC(Cl)c3ccc(Cl)cc3)c2n1 (stereo not shown)	%	65.9
CSc1nc(Nc2cccc(F)c2)c2cnn(CC(Cl)c3ccc(F)cc3)c2n1 (stereo not shown)	%	59.3

[ask] Request the reported Cells in G1 phase associated with CSc1nc(NCCc2ccccc2)c2cnn(CC(Cl)c3ccc(F)cc3)c2n1 (stereo not shown)
[reply] 61

[ask] Same again, this time with CSc1nc(NCc2ccccc2)c2cnn(CC(Br)c3ccccc3)c2n1 (stereo not shown)
[reply] 58.7

[ask] Same again, this time with Fc1ccc(C(Cl)Cn2ncc3c(Nc4cccc(Cl)c4)ncnc32)cc1 (stereo not shown)
[reply] 51

[ask] Same again, this time with CCCCNc1nc(SCC)nc2c1cnn2CC(Cl)c1ccccc1 (stereo not shown)
[reply] 61.9

[ask] Same again, this time with Cc1nc(Nc2cccc(F)c2)c2cnn(CC(Cl)c3ccccc3)c2n1 (stereo not shown)
[reply] 56.7
